TARGET DESC: Fibroblast growth factor 10 (Homo sapiens) (UniProt O15520)
Sequence (O15520 whole entry, looked up): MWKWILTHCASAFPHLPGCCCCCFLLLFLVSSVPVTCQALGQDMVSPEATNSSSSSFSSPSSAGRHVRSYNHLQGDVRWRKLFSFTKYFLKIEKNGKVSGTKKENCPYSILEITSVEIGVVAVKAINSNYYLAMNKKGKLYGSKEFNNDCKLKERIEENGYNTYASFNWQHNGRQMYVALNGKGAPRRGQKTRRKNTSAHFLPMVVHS
ASSAY PROCEDURE: FGF10 binders on small-molecule microarrays, primary screen, biochemical, small-molecule microarray, 635 nm fluorescence (AID 1102)
EXPERIMENTAL SETUP: FGF10 binding, fluorescence 635 nm, higher = more signal
ASSAY READOUT: composite z-score
Respond using a number only.

-- ask Look up composite z-score of CC(C)[Si]1(C(C)C)OCc2cc(-c3ccc(-c4ccc(Cl)c(Cl)c4)o3)nc(-c3ccc(Oc4ccccc4)cc3)c21 and report it.
-- reply -1.78

-- ask Look up composite z-score of CO[C@H]1O[C@H](CO)[C@@H](OC(=O)CCc2ccccc2)[C@@H]2OC(=O)[C@@H](Cc3ccc4ccccc4c3)C/C=C/C[C@H](Cc3ccc4ccccc4c3)C(=O)O[C@@H]12 and report it.
-- reply -0.361

-- ask Look up composite z-score of O=C(CS)NCCCCCCNC(=O)[C@H]1C[C@H]2C(=O)NCC(=O)N2[C@H]1c1cccc(OCCO)c1 and report it.
-- reply 0.901

-- ask Look up composite z-score of CC(C)C[C@@H]1NC(=O)[C@@H]2C[C@H](C(=O)NCCCCCNC(=O)CS)[C@H](c3ccc(O)cc3)N2C1=O and report it.
-- reply -0.113

-- ask Look up composite z-score of COc1ccc(NN2C(C(O)c3ccc(F)cc3)C=CC3C(=O)N(C4CCCCC4)C(=O)C32)cc1 (centres undefined) and report it.
-- reply 0.995

-- ask Look up composite z-score of CCCCCN1CC=CC23O[C@@H]4/C=C\CCCOC(=O)C4[C@H]2C(=O)N(CCO)[C@@H]3C1=O (some centres undefined) and report it.
-- reply -0.412

-- ask Look up composite z-score of O=C1OC[C@@H](c2ccccc2)n2cc(/C=C/c3ccccc3)cc21 and report it.
-- reply -0.256

-- ask Look up composite z-score of COC(=O)[C@@]1(Cc2ccc(F)cc2)[C@H]2c3cc(C(=O)N4CCCC4)n(Cc4ccc(OC(F)(F)F)cc4)c3C[C@H]2CN1C(=O)c1ccccc1 and report it.
-- reply -0.135

-- ask Look up composite z-score of COc1ccc([Si](C)(C)[C@@H]2[C@@H](CC(=O)N(CCO)Cc3ccccc3)O[C@]3(C(=O)N(Cc4cccc(I)c4)c4ccccc43)[C@H]2C)cc1 and report it.
-- reply 1.45

-- ask Look up composite z-score of CC(C)(C)OC(=O)CC[C@@]1(C(N)=O)N=C(c2ccc(OCCCO)cc2)O[C@@H]1c1ccccc1CN=[N+]=[N-] and report it.
-- reply 1.48

-- ask Look up composite z-score of COCCOC(=O)N1C(=O)[C@@]2(c3cc(C#CCC(C(=O)OC)C(=O)OC)ccc31)[C@H](c1ccc(O)cc1)N1[C@H](c3ccccc3)[C@H](c3ccccc3)OC(=O)[C@H]1[C@@H]2C(=O)N1CCc2cc(OC)c(OC)cc2C1 and report it.
-- reply 1.09

-- ask Look up composite z-score of CCCC1(C(=O)OC)C=C2C(=C(C(C)C)C(=O)C2C)CN1 (centres undefined) and report it.
-- reply -0.474

-- ask Look up composite z-score of COC(=O)[C@@]1(Cc2ccc(F)cc2)[C@H]2c3cc(C(=O)N4CCCC4)n(Cc4ccc(C(F)(F)F)nc4)c3C[C@H]2CN1C(=O)c1ccccc1 and report it.
-- reply 0.472

-- ask Look up composite z-score of OCCCc1cc[n+](Cc2cc3c(cc2Br)OCO3)cc1 and report it.
-- reply -0.741

-- ask Look up composite z-score of COCCOC(=O)N1C(=O)[C@@]2(c3cc(C#CCNC(N)=O)ccc31)[C@H](C(N)=O)[C@H]1C(=O)O[C@H](c3ccccc3)[C@H](c3ccccc3)N1[C@@H]2c1ccc(O)cc1 and report it.
-- reply 0.149

-- ask Look up composite z-score of COc1ccc([Si](C)(C)[C@H]2[C@H](CC(=O)N3CCC[C@H]3CO)O[C@@]3(C(=O)N(C)c4ccccc43)[C@@H]2C)cc1 and report it.
-- reply 0.105

-- ask Look up composite z-score of C#CCN(C(=O)OC(C)(C)C)[C@H](CO)c1ccccc1 and report it.
-- reply 0.286

-- ask Look up composite z-score of CC1C2C(CCCO)=CC(C3C(=O)N(C)C(=O)C23)N1Cc1cccc(OC(F)(F)F)c1 (centres undefined) and report it.
-- reply 0.684

-- ask Look up composite z-score of O=C1OCC=C[C@H]2OC34C=CCN(Cn5nnc6ccccc65)C(=O)[C@H]3N(CCO)C(=O)[C@@H]4[C@@H]12 (some centres undefined) and report it.
-- reply -1.33
